target: MAT2A homodimer (Homo sapiens)
Construct: inferred from Ni sepharose purification and imidazole elution
Sequence (P31153 whole entry): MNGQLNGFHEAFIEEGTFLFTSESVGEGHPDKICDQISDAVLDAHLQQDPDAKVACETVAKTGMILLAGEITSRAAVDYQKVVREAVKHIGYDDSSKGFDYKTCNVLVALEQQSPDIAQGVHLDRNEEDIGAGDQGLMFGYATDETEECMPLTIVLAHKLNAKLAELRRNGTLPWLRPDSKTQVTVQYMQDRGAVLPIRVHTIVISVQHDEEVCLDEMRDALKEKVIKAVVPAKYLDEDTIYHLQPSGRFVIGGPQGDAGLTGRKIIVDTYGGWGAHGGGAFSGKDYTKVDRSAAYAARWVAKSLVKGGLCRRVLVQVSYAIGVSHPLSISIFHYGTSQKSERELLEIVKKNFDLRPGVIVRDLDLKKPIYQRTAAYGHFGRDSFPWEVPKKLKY
assayRemarks: Biochemical assay: inhibition of recombinant MAT2A homodimer (phosphate release, PiColorLock Gold)
recordedConditions: MAT2A IC50 score; read-out: Enzyme Inhibition
recordedEndpoint: IC50

Previously resolved entries follow.
compound="O=c1c(-c2ccc3nncn3c2)cc2ccc(OCC(F)(F)F)nc2n1-c1ccc(Cl)cc1 [Example 214]" reported="< 100 nM"
compound="COc1ccc(-c2cc3cnc(S(C)(=O)=O)nc3n(-c3ccc(O)cc3)c2=O)cc1 [Example 105]" reported="1000 to 10000 nM"
compound="COc1ccc(-c2cc3cnc(NCC(F)(F)F)nc3n(-c3ccc(O)cc3)c2=O)cc1 [Example 106]" reported="100 to 1000 nM"
compound="CCOc1cnc2cc(-c3ccc(OC)cc3)c(=O)n(-c3ccc(OC(F)F)cc3)c2n1 [Example 230]" reported="< 100 nM"
compound="COc1ccc(-n2c(=O)c(-c3ccc4[nH]cnc4c3)cc3cnc(NCC(F)(F)F)nc32)cc1 [Example 174]" reported="< 100 nM"
compound="O=c1c(-c2ccc3nncn3c2)cc2ccc(OCC(F)F)nc2n1-c1ccc(Cl)cc1 [Example 218]" reported="< 100 nM"
compound="CCOc1ccc2cc(-c3ccc4nccn4c3)c(=O)n(-c3ccc(Cl)cc3)c2n1 [Example 197]" reported="< 100 nM"
compound="COc1ccc(-c2cc3cnc(SC)nc3n(-c3ccc(OC(F)(F)F)cc3)c2=O)cc1 [Example 108]" reported="1000 to 10000 nM"
compound="COc1ccc(-c2cc3cnc(SC)nc3n(-c3ccc(C(F)(F)F)cc3)c2=O)cc1 [Example 111]" reported="1000 to 10000 nM"
compound="CCOc1ccc2cc(-c3ccc4nnn(C)c4c3)c(=O)n(-c3ccc(OC(F)F)cc3)c2n1 [Example 209]" reported="< 100 nM"

Query string: Given the compound [2H]C([2H])([2H])Oc1ccc(-n2c(=O)c(-c3ccc4nn(C)cc4c3)cc3ccc(OC(C)C)nc32)cc1 [Example 322] , write its reported IC50.
Result string: < 100 nM

Query string: Look up IC50 of CCOc1ccc2cc(-c3ccc(OC)cc3)c(=O)n(-c3ccc(C)nc3)c2n1 [Example 136] and report it.
Result string: < 100 nM

Query string: Read off the recorded IC50 for COc1ccc(-n2c(=O)c(-c3ccc4ncccc4c3)cc3cnc(NCC(F)(F)F)nc32)cc1 [Example 116]
Result string: < 100 nM

Query string: Could you please provide reported IC50 for CCOc1cnc2cc(-c3ccc4nn(C)cc4c3)c(=O)n(-c3ccc(Cl)cc3)c2n1 [Example 229] ? Thanks!
Result string: < 100 nM

Query string: Supply IC50 value. Item: [2H]C([2H])([2H])Oc1ccc(-n2c(=O)c(-c3ccc4nn(C)cc4c3)cc3ccc(OCC(F)(F)F)nc32)cc1 [Example 316]
Result string: < 100 nM

Query string: Return reported IC50. Input compound: COc1ccc(-c2cc3ccc(NCC(F)(F)F)nc3n(-c3ccc(C4CC4)nc3)c2=O)cc1 [Example 134]
Result string: < 100 nM

====

target: MAT2A homodimer (Homo sapiens)
Construct: inferred from Ni sepharose purification and imidazole elution
assayRemarks: Biochemical assay: inhibition of recombinant MAT2A homodimer (phosphate release, PiColorLock Gold)
recordedConditions: MAT2A IC50 score; read-out: Enzyme Inhibition
pIC50: −log10 of the molar value.
Each record here notes measured pIC50.

Use the examples below as a reference point.
smilesinput=COc1ccc(-c2cc3cnc(NCC(F)(F)F)nc3n(-c3ccc(Br)cc3)c2=O)cc1 reported="> 7.00"
smilesinput=CCOc1ccc2cc(-c3ccc4ncccc4c3)c(=O)n(-c3ccc(Cl)cc3)c2n1 reported="> 7.00"
smilesinput=CCOc1ccc2cc(-c3ccc(OC)cc3)c(=O)n(-c3ccc(C(F)(F)F)cc3)c2n1 reported="> 7.00"
smilesinput=CCOc1ccc2cc(-c3ccc4nn(CC(C)(C)O)cc4c3)c(=O)n(-c3ccc(OC(F)F)nc3)c2n1 reported="> 7.00"
smilesinput=COc1ccc(-n2c(=O)c(-c3ccc4nncn4c3)cc3cnc(NCC(F)(F)F)nc32)cc1 reported="5.00 to 6.00"

Query string: Please give the documented pIC50 of Cn1cc2cc(-c3cc4ccc(OCC(F)F)nc4n(-c4ccc(C5CC5)nc4)c3=O)ccc2n1
Result string: > 7.00

Query string: For the compound [2H]C([2H])([2H])Oc1ccc(-n2c(=O)c(-c3ccc4nn(C)cc4c3)nc3ccc(OCC(F)F)nc32)cc1 , report pIC50.
Result string: > 7.00

Query string: Provide measured pIC50 value, entry: CCOc1ccc2cc(-c3ccc(OC)cc3)c(=O)n(-c3ccc(C4CC4)nc3)c2n1
Result string: > 7.00
